B1: LCOR (parent)
chain: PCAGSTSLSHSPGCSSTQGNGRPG

# Variants of: B1
# Assay: protein stability index of a GFP-peptide fusion (GPS, HEK-293T) (PSI 1-6); higher = more stable;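 note: lentivirally expressed fusions sorted by FACS into six bins by GFP to DsRed ratio, PSI derived from sequencing read proportions per bin multiplied by bin number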
# Particulars: c terminus: a fixed tail appended
A collection of variants and their measured protein stability index
Reported endpoint: protein stability index

Item sequence: PCAGSTSLSTSPGCSSTQGNGRPG [H10T]
Reported endpoint: protein stability index
Test value: 4.4
--
Item sequence: PTAGSTSLSHSPGCSSTQGNGRPG [C2T]
Reported endpoint: protein stability index
Test value: 3.63
--
Item sequence: PCAGSTSLSHSPGCSSTQGNGRPQ [G24Q]
Reported endpoint: protein stability index
Test value: 3.37
--
Item sequence: PCAGSTSLSHSPGCSKTQGNGRPG [S16K]
Reported endpoint: protein stability index
Test value: 3.37
--
Item sequence: PVAGSTSLSHSPGCSSTQGNGRPG [C2V]
Reported endpoint: protein stability index
Test value: 4.04
--
Item sequence: PCAGSTSTSHSPGCSSTQGNGRPG [L8T]
Reported endpoint: protein stability index
Test value: 4.15
--
Item sequence: PCAGSTSLMHSPGCSSTQGNGRPG [S9M]
Reported endpoint: protein stability index
Test value: 3.48
--
Item sequence: PCAGSTSLSHSPGCSSTQGNGRPR [G24R]
Reported endpoint: protein stability index
Test value: 3.07
--
Item sequence: PCAHSTSLSHSPGCSSTQGNGRPG [G4H]
Reported endpoint: protein stability index
Test value: 3.52

Each recorded value in this set is attributed to the supplement of paper PMC10567573.
